Please provide measured IC50 for the entries that follow.
# target.entity: Voltage-dependent L-type calcium channel subunit alpha-1D (Rattus norvegicus)
# Sequence (P27732 whole entry): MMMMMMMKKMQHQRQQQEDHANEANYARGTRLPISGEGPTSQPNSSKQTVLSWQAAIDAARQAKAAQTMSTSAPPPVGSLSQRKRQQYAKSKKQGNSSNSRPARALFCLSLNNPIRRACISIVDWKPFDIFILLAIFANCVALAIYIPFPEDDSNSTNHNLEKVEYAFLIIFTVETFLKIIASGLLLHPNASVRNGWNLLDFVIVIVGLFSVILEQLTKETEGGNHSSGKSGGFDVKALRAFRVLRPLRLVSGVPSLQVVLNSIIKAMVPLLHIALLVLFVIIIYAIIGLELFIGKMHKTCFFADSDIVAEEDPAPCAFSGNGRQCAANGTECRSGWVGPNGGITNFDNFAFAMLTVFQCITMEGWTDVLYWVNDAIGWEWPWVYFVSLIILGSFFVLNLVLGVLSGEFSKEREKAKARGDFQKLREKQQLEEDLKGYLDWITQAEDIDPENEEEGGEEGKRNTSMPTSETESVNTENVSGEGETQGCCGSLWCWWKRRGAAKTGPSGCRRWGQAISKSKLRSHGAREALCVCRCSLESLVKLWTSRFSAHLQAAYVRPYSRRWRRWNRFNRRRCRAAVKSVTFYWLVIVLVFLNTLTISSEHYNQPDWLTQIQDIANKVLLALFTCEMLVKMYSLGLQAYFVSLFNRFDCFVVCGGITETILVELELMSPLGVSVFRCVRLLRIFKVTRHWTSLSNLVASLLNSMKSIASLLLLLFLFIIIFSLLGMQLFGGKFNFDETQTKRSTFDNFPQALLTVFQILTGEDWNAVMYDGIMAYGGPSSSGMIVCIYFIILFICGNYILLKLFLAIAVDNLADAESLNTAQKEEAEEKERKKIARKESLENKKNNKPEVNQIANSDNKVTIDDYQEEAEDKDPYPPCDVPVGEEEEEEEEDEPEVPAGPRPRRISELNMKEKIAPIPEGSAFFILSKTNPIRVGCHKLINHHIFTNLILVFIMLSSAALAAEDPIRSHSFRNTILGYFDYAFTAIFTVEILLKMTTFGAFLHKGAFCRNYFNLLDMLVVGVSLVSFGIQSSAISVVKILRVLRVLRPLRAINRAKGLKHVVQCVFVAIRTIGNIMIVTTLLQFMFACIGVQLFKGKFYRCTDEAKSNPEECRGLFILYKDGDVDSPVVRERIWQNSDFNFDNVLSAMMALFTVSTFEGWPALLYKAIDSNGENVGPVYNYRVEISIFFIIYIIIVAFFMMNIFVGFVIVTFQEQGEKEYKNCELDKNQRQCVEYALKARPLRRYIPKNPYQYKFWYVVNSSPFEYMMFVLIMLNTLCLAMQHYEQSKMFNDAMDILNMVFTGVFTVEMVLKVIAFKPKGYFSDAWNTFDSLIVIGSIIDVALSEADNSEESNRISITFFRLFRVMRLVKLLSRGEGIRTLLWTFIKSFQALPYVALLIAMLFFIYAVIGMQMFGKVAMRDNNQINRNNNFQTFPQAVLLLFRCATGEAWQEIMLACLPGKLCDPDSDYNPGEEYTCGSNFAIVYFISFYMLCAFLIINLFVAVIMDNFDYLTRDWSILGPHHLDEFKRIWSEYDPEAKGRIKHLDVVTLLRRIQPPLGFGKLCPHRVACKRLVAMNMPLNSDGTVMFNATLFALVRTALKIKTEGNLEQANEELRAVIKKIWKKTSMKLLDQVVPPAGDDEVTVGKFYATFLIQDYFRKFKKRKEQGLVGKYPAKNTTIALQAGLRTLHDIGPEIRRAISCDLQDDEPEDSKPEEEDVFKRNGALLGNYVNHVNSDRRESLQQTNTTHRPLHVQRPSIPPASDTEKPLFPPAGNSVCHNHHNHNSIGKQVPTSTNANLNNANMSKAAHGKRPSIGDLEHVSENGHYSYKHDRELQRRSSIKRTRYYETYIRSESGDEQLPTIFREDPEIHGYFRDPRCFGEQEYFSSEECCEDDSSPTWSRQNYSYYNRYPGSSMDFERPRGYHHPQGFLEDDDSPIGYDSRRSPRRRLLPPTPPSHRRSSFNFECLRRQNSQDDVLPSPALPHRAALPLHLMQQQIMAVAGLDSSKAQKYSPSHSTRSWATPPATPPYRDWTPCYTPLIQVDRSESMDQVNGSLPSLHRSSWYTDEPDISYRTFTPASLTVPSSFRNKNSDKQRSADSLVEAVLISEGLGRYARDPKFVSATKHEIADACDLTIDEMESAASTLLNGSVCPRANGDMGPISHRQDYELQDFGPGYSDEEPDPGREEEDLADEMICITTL
# measurement.notes: Antagonist activity at rat CaV1.3alpha1D transfected in HEK293 cells by FLIPR assay
Give the number; µM is assumed, so skip it.

Look up IC50 for this molecule: O=C1CC(=O)N(C2CCCC2)C(=O)N1CCc1cc(Cl)cc(Cl)c1 1.4

Here is the next molecule: O=C1CC(=O)N([C@@H]2C[C@@H]3CC[C@H]2C3)C(=O)N1CCc1ccc(Cl)cc1 1.9

Here is the next molecule: O=C1CC(=O)N(C2CCCC2)C(=O)N1CCc1ccc(-c2ccccc2)cc1 4.4

Here is the next molecule: C[C@H]1CCCC[C@H]1N1C(=O)CC(=O)N(CCc2cccc(Cl)c2)C1=O 3.7

Here is the next molecule: CC(=O)OCC1(N2C(=O)CC(=O)N(CCc3cccc(Cl)c3)C2=O)CCCC1 39.3

Here is the next molecule: CCC(CC)N1C(=O)CC(=O)N(CCc2cccc(Cl)c2)C1=O 11.7

Here is the next molecule: C[C@H]1CCC[C@H]1N1C(=O)CC(=O)N(CCc2cccc(Cl)c2)C1=O 7.3

Here is the next molecule: O=C(OCc1ccccc1)N1CC[C@H](N2C(=O)CC(=O)N(CCc3cccc(Cl)c3)C2=O)C1 50.3

Here is the next molecule: O=C1CC(=O)N(C2CC3CCC2C3)C(=O)N1CCc1cc(Cl)cc(Cl)c1 (racemic) 2.7

Here is the next molecule: O=C1CC(=O)N(C2CCc3ccccc32)C(=O)N1C1CCCC1 (stereo not drawn) 19.9

Here is the next molecule: O=C1CC(=O)N(C2CCCC2)C(=O)N1CCc1cccc(Cl)c1 6.3

Here is the next molecule: O=C1CC(=O)N([C@H]2C[C@H]3CC[C@@H]2C3)C(=O)N1CCc1ccc(Cl)cc1 2.1

Here is the next molecule: C[C@@H]1CCC[C@@H]1N1C(=O)CC(=O)N(CCc2cccc(Cl)c2)C1=O 5.5

Here is the next molecule: CC1(C)CCC[C@H]1N1C(=O)CC(=O)N(CCc2cccc(C(F)(F)F)c2)C1=O 2.7

Here is the next molecule: CCC1CCC(N2C(=O)CC(=O)N(CCc3cccc(Cl)c3)C2=O)C1 (stereo not drawn) 7.3

Here is the next molecule: C[C@@H]1[C@@H](N2C(=O)CC(=O)N(CCc3ccc(Cl)cc3)C2=O)C[C@H]2C[C@@H]1C2(C)C 22

Here is the next molecule: C[C@H]1CCC[C@@H]1N1C(=O)CC(=O)N(CCc2cccc(Cl)c2)C1=O (racemic) 11

Here is the next molecule: CC1(C)CCC[C@H]1N1C(=O)CC(=O)N(CCc2ccc(Cl)cc2)C1=O 4.7

Here is the next molecule: CO[C@H]1CCC[C@@H]1N1C(=O)CC(=O)N(CCc2cccc(Cl)c2)C1=O 30.3

Here is the next molecule: CC1CCC(N2C(=O)CC(=O)N(CCc3ccc(Cl)cc3)C2=O)CC1 (stereo not drawn) 11

Here is the next molecule: O=C1CC(=O)N(C2CC3CCC2C3)C(=O)N1CCc1cc(C(F)(F)F)cc(C(F)(F)F)c1 (mixture of isomers) 1.8

Here is the next molecule: CCOC(=O)[C@@H]1CCC[C@@H]1N1C(=O)CC(=O)N(CCc2cccc(Cl)c2)C1=O 12

Here is the next molecule: COC(=O)C1(N2C(=O)CC(=O)N(CCc3cccc(Cl)c3)C2=O)CCCC1 32.7

Here is the next molecule: CC(C)C(=O)O[C@H]1CCC[C@@H]1N1C(=O)CC(=O)N(CCc2cccc(Cl)c2)C1=O 13.7

Here is the next molecule: CC(C)C(=O)OCC1(N2C(=O)CC(=O)N(CCc3cccc(Cl)c3)C2=O)CCCC1 11.9

Here is the next molecule: C[C@@H](C1CCCCC1)N1C(=O)CC(=O)N(CCc2cccc(Cl)c2)C1=O 4.3

Here is the next molecule: CC(C)(CN1C(=O)CC(=O)N(C2CCCC2)C1=O)c1cccc(C(F)(F)F)c1 2.2

Here is the next molecule: O=C1CC(=O)N(C2CCCC2)C(=O)N1Cc1ccc(Cl)cc1 17.9

Here is the next molecule: O=C1CC(=O)N(C2CCCC2)C(=O)N1CCC(c1ccccc1)c1ccccc1 4.1

Here is the next molecule: CC1CCC(N2C(=O)CC(=O)N(CCc3cccc(Cl)c3)C2=O)CC1 (stereo not drawn) 35

Here is the next molecule: CC(=O)O[C@@H]1CCC[C@@H]1N1C(=O)CC(=O)N(CCc2cccc(Cl)c2)C1=O 38.6

Here is the next molecule: O=C1CC(=O)N(C2CCCC2)C(=O)N1Cc1cccc(Cl)c1 43

Here is the next molecule: CC1(C)CCC[C@@H]1N1C(=O)CC(=O)N(CCc2cccc(Cl)c2)C1=O 2.1

Here is the next molecule: CC1(C)CCC(N2C(=O)CC(=O)N(CCc3cccc(Cl)c3)C2=O)C1 (stereo not drawn) 5.6
